system: LXRa:RXRa (NR concentration 270 nM, RXRa partner concentration 90 nM); assay: PBM binding z-score (relative to random genomic background probes); higher = stronger binding; sequences stand for … in GC…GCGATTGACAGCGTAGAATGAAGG
Each entry falls into one class according to its PBM binding z-score; the ranges are class 0 = under 3, class 1 = from 3 up to 6, class 2 = 6 and over

Residue sequence: TAGCCTAGGGCATTCAGGGGCCAGTATAGAAAGC
Group: class 0

Residue sequence: ATATGTAGGTCAAGGGTCATTCAGGTTGGTTCGC
Group: class 2

Residue sequence: GCTTAAGGGTCAAAGGTTATAGCATGAATAGAAT
Group: class 2

Residue sequence: TCTGCTAGGTCATCGATGGTCAGCTAATCTGCTA
Group: class 1

Residue sequence: ATATGTAGGTTAAAGGTCATTCAGGTTGGTTCGC
Group: class 2

Residue sequence: CCAACTGGGCCAAAAAGGTCATTGATGCCGATAA
Group: class 1

Residue sequence: TCGTGTAGGTTACGGGGGCATTCAGGGATGAAGA
Group: class 1

Residue sequence: CGAACTAGGTCAAAGGACATTGAAAGGCGACGTA
Group: class 0

Residue sequence: ATTTGTAGGTTACATCCGGGTCATTCAGGCTATG
Group: class 1

Residue sequence: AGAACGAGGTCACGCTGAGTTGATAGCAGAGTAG
Group: class 2

Residue sequence: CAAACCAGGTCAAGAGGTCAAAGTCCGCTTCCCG
Group: class 2

Residue sequence: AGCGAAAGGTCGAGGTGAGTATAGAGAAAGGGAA
Group: class 1

* * *

system: LXRb homodimer (NR concentration 270 nM); assay: PBM binding z-score (relative to random genomic background probes); higher = stronger binding; sequences stand for … in GC…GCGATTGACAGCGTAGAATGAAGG
In this section we review reported PBM binding z-score values for a set of sequences.

Residue sequence: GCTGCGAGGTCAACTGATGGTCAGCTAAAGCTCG
PBM binding z-score: 1.67

Residue sequence: AGAATGAGGTTAAACGTAGATCAGGGAAGAAAGT
PBM binding z-score: 0.141

Residue sequence: TCTAGTTGGTCAAAGGTCACGCACTCGAAATGCG
PBM binding z-score: 1.9

Residue sequence: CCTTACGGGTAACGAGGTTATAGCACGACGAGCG
PBM binding z-score: -0.211

Residue sequence: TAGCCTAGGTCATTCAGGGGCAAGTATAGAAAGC
PBM binding z-score: 1.41

Residue sequence: TCGCCTAGGTCATGGGCCAGTATACCACGCGAAC
PBM binding z-score: -0.146

Residue sequence: CAAACTAGGTCAAGGTCTAAGTCGGTTTGTGCCA
PBM binding z-score: 0.246

Residue sequence: CAAACAAGGTCAAAGGTCAAAGTCGAGCCAACCA
PBM binding z-score: 4.04

Residue sequence: CGTCAAAGTCCAAGGTAACGTAACAGAAAGCAGC
PBM binding z-score: -0.271

Residue sequence: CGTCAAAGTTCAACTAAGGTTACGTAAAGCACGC
PBM binding z-score: 2.31

Residue sequence: ACGCGGAGGACAAAGGTCAGAGCTACGCCAGTGA
PBM binding z-score: 0.25

Residue sequence: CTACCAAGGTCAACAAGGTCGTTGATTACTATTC
PBM binding z-score: 1.23

* * *

tested on: PXR:RXRa (NR concentration 270 nM, RXRa partner concentration 90 nM); test: PBM binding z-score (relative to random genomic background probes); higher = stronger binding; sequences stand for … in GC…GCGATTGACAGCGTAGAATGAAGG
Rule: PBM binding z-score of 1 or more gives yes; anything lower gives no.

Residue sequence: TAGCCTAAGTCATGCGGGCCAGTATAGTGTCGGC
Group: no
//
Residue sequence: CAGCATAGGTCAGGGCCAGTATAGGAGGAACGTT
Group: yes
//
Residue sequence: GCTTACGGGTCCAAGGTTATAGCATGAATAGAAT
Group: no
//
Residue sequence: ATATGTAGGTTACCTGGGGTCATTCAGACTAGGC
Group: yes
//
Residue sequence: CTATGTAGGTTAGGGGGGTCATTCAGTTTGAAAG
Group: yes
//
Residue sequence: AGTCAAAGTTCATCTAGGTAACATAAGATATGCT
Group: yes
//
Residue sequence: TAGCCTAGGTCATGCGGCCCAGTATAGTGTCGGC
Group: yes
//
Residue sequence: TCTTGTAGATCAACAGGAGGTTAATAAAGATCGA
Group: no
//
Residue sequence: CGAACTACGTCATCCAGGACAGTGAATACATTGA
Group: no
//
Residue sequence: CTCGAAAGGTCATGCTCAGGTGAGTATACCAAAC
Group: yes
//
Residue sequence: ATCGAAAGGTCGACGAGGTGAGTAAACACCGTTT
Group: yes
//
Residue sequence: CCTACTGGACCAAGGTCATTGATCAGTCAAAGCA
Group: yes

* * *

In this section we review reported PBM binding z-score values for a set of sequences.
test system: RXRa homodimer (NR concentration 180 nM); assay: PBM binding z-score (relative to random genomic background probes); higher = stronger binding; sequences stand for … in GC…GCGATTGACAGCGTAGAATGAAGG

Residue sequence: ATCGAAAGGTCCAAGGTGAGTATACCCACCCGAA
PBM binding z-score: 0.853
--
Residue sequence: CCTGCGAGGTCATGGTCAGCTAATCTACAGTATG
PBM binding z-score: 7.05
--
Residue sequence: CGCACTAGGTCATCCAGGACAGTGAATACATTGA
PBM binding z-score: 2.76
--
Residue sequence: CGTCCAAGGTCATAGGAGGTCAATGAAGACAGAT
PBM binding z-score: 7.15
--
Residue sequence: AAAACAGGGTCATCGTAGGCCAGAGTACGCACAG
PBM binding z-score: 7.23

* * *

test system: LXRb homodimer (NR concentration 270 nM); test: PBM binding z-score (relative to random genomic background probes); higher = stronger binding; sequences stand for … in GC…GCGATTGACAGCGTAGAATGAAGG
In this section we review reported PBM binding z-score values for a set of sequences.

Residue sequence: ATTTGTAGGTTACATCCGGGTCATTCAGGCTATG
Target desc: LXRb homodimer (NR concentration 270 nM)
PBM binding z-score: 1.83

Residue sequence: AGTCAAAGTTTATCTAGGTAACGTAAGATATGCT
Target desc: LXRb homodimer (NR concentration 270 nM)
PBM binding z-score: -0.331

Residue sequence: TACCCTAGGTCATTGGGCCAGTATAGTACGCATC
Target desc: LXRb homodimer (NR concentration 270 nM)
PBM binding z-score: 3.83

Residue sequence: CCTGCTAGGTCAAAGGTCAGCTAAAGCAGCTCGC
Target desc: LXRb homodimer (NR concentration 270 nM)
PBM binding z-score: 1.05

Residue sequence: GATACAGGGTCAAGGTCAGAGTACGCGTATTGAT
Target desc: LXRb homodimer (NR concentration 270 nM)
PBM binding z-score: 0.776

Residue sequence: AATACAGGGTCATCGTACGCCAGAGTACGCACAG
Target desc: LXRb homodimer (NR concentration 270 nM)
PBM binding z-score: 1.54

Residue sequence: AGAATGGGGTTATACGTAGATCAGGGAAGAAAGT
Target desc: LXRb homodimer (NR concentration 270 nM)
PBM binding z-score: 2.07

Residue sequence: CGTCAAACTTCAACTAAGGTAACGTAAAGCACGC
Target desc: LXRb homodimer (NR concentration 270 nM)
PBM binding z-score: 0.584

Residue sequence: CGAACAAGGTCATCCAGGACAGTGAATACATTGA
Target desc: LXRb homodimer (NR concentration 270 nM)
PBM binding z-score: 1.27

Residue sequence: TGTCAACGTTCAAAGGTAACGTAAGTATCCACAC
Target desc: LXRb homodimer (NR concentration 270 nM)
PBM binding z-score: 0.0417

Residue sequence: CGTCAAAGGTCAGAGAGGTCAGTGAATGCCGAGT
Target desc: LXRb homodimer (NR concentration 270 nM)
PBM binding z-score: 1.76

Residue sequence: CGTCCAAGGTCTAGGTCAGTGAAAGAGACTCGAA
Target desc: LXRb homodimer (NR concentration 270 nM)
PBM binding z-score: -0.741

* * *

tested on: PPARg:RXRa (NR concentration 180 nM, RXRa partner concentration 90 nM); test: PBM binding z-score (relative to random genomic background probes); higher = stronger binding; sequences stand for … in GC…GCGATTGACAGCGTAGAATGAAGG

Residue sequence: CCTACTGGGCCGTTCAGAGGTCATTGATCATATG
PBM binding z-score: 1.33
//
Residue sequence: ATCGAAAGGTCTAAGGTGAGTATACCCACCCGAA
PBM binding z-score: 1.52
//
Residue sequence: GCTTAGGGGTCAAAGGTTATAGCATGAATAGAAT
PBM binding z-score: 11.8
//
Residue sequence: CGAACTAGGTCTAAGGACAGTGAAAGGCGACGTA
PBM binding z-score: 2.4
//
Residue sequence: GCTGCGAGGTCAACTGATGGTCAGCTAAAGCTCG
PBM binding z-score: 6.28
//
Residue sequence: CGAACAAGGTCATTGACAGGACAGTGAATAGTAA
PBM binding z-score: 5.6
//
Residue sequence: CGAACGAGGTCAAAGGACAGTGAAAGGCGACGTA
PBM binding z-score: 8.64
//
Residue sequence: CGTCCGAGGTCAAGGTCAGTGAAAGAGACTCGAA
PBM binding z-score: 7.82
//
Residue sequence: CGAACTAGGTCATCCAGGACCGTGAATACATTGA
PBM binding z-score: 7.13
//
Residue sequence: AGTCAAAGTTCATCTAGGTCACGTAAGATATGCT
PBM binding z-score: 7.93
//
Residue sequence: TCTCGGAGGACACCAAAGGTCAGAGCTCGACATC
PBM binding z-score: 2.04
//
Residue sequence: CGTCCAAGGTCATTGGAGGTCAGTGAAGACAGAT
PBM binding z-score: 5.48
//
Residue sequence: ACTTACGGGTCAACGAGGTCATAGCACGCGTATA
PBM binding z-score: 6.76
//
Residue sequence: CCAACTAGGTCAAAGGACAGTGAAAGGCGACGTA
PBM binding z-score: 9.64
//
Residue sequence: TATCAAAGTTCAAAGGTAACGTAAGTATCCACAC
PBM binding z-score: 6.12
//
Residue sequence: GTTACAGGGTCAAGGCCAGAGTACGCGTATTGAT
PBM binding z-score: 5.4
//
Residue sequence: CAAACAAGGTCACAGAGGTCAAAGTCCGTGCGTA
PBM binding z-score: 9.2
//
Residue sequence: TGTCAAAGTTCAAAGGTGACGTAAGTATCCACAC
PBM binding z-score: 9.47
//
Residue sequence: CAAACCAGGTCAAAGGTCAAAGTCGAGCCAACCA
PBM binding z-score: 13.2
//
Residue sequence: CGTCAAAGGTCAATGCTAGGTCAGTGAAAGCATT
PBM binding z-score: 8.14
//
Residue sequence: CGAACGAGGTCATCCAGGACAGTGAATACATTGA
PBM binding z-score: 7.79
//
Residue sequence: CCTTACGGGTCACTCCAGGTCATAGCATCGGAGT
PBM binding z-score: 4.38
//
Residue sequence: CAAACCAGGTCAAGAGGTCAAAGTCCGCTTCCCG
PBM binding z-score: 8.56
//
Residue sequence: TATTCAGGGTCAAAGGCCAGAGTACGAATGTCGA
PBM binding z-score: 8.53
//
Residue sequence: CGTCAAAGGTCATAGGAGGTCAGTGAAGACAGAT
PBM binding z-score: 8.97
//
Residue sequence: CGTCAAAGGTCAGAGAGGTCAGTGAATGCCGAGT
PBM binding z-score: 7.66
//
Residue sequence: CCTACTGGGCCATTCAGAGGTCAATGATCATATG
PBM binding z-score: 2.59
//
Residue sequence: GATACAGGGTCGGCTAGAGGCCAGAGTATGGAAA
PBM binding z-score: 0.561
//
Residue sequence: TAGCCGAGGTCATTCAGGGGCCAGTATAGAAAGC
PBM binding z-score: 6.14
//
Residue sequence: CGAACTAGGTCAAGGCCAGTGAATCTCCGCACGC
PBM binding z-score: 7.33
//
Residue sequence: CAAAATAGGTCACCGGAAGGTCAAAGTCCGCATG
PBM binding z-score: 9.14
//
Residue sequence: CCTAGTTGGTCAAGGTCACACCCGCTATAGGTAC
PBM binding z-score: 2.92
//
Residue sequence: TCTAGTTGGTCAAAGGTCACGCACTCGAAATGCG
PBM binding z-score: 12
//
Residue sequence: CAAACGAGGTCAAAGGTCAAAGTCGAGCCAACCA
PBM binding z-score: 13.9
//
Residue sequence: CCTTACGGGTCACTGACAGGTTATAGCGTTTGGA
PBM binding z-score: 4.5
//
Residue sequence: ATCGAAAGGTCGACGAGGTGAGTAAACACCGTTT
PBM binding z-score: 2.6
//
Residue sequence: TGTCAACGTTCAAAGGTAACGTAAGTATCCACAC
PBM binding z-score: 2.58
//
Residue sequence: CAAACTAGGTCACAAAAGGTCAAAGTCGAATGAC
PBM binding z-score: 10.1
//
Residue sequence: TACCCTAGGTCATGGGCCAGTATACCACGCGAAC
PBM binding z-score: 4.58
//
Residue sequence: CCGAGTAGGTTACGAGGGGTCATTCAGTGCGAAT
PBM binding z-score: 4.13
//
Residue sequence: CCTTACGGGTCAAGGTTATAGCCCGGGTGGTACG
PBM binding z-score: 4.06
//
Residue sequence: CGTCCAAGGTCATAGAGGTCAGTGAATGCCGAGT
PBM binding z-score: 5.9
//
Residue sequence: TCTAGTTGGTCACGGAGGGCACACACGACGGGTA
PBM binding z-score: 1.25
//
Residue sequence: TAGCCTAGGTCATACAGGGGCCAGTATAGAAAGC
PBM binding z-score: 2.36
//
Residue sequence: AGAATGAGGTTACTAAAGATCAGGGAAACGCTTG
PBM binding z-score: 1.81
//
Residue sequence: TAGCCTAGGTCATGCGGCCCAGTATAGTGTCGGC
PBM binding z-score: 2.04
//
Residue sequence: CCTACTGGGTCACGAAAGGTCATTGATTCAGTGA
PBM binding z-score: 9.12
//
Residue sequence: ATATGTAGGTTAGGGGTCATTCAGGTTGGTTCGC
PBM binding z-score: 11.4
//
Residue sequence: CAAACAAGGTCACCGGAAGGTCAAAGTCCGCATG
PBM binding z-score: 8.84
//
Residue sequence: CCGAGTAGGTTACTAGGGGGCATTCAGTGCGAAT
PBM binding z-score: 2.37
//
Residue sequence: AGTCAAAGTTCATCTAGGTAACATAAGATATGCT
PBM binding z-score: 6.9

All values here come from the supplement of paper PMC6555819.
